- METHOD: reduction of Shn3 3'UTR-driven luciferase in osteoblasts – cell-based, Clone20 osteoblasts, firefly luciferase, cherry-picked, dose response (AID 624132);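 further: firefly luciferase luminescence from reporter carrying the Shn3 3'UTR in osteoblasts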
- Assay type: functional
Active and inactive are the calls of the source.
Give AC50 for every item shown.

Here's what some known entries look like.
COMPOUND: Cc1cc(NC(=O)CCN2CCN(C/C=C/c3ccccc3)CC2)ccc1Br
PARAMETER_MEASURED: AC50
RESULT_VALUE: 10200 nM (active)
//
COMPOUND: CCOC(=O)CC1CCCCN1C(=O)c1cc(COc2cccc3cnccc23)on1 (stereo not given)
PARAMETER_MEASURED: AC50
RESULT_VALUE: 713 nM (active)
//
COMPOUND: Cc1nc(N2CCN(C(=O)c3ccco3)CC2)c2c3c(sc2n1)CC(C)CC3 (stereo not given)
PARAMETER_MEASURED: AC50
RESULT_VALUE: 2330 nM (active)

# map each compound to its AC50
1. OC(c1cc(-c2cccc(Cl)c2)nc2ccccc12)C1CCCCN1 (stereo not given)
2. Cc1cc(C)c2sc(NNC(=O)c3ccc(S(=O)(=O)N4CCc5ccccc5C4)cc3)nc2c1

Result:
10800 nM (active)
1800 nM (active)

###

- TARGET_ENTITY: UniProt P31424
- Sequence (P31424 whole entry): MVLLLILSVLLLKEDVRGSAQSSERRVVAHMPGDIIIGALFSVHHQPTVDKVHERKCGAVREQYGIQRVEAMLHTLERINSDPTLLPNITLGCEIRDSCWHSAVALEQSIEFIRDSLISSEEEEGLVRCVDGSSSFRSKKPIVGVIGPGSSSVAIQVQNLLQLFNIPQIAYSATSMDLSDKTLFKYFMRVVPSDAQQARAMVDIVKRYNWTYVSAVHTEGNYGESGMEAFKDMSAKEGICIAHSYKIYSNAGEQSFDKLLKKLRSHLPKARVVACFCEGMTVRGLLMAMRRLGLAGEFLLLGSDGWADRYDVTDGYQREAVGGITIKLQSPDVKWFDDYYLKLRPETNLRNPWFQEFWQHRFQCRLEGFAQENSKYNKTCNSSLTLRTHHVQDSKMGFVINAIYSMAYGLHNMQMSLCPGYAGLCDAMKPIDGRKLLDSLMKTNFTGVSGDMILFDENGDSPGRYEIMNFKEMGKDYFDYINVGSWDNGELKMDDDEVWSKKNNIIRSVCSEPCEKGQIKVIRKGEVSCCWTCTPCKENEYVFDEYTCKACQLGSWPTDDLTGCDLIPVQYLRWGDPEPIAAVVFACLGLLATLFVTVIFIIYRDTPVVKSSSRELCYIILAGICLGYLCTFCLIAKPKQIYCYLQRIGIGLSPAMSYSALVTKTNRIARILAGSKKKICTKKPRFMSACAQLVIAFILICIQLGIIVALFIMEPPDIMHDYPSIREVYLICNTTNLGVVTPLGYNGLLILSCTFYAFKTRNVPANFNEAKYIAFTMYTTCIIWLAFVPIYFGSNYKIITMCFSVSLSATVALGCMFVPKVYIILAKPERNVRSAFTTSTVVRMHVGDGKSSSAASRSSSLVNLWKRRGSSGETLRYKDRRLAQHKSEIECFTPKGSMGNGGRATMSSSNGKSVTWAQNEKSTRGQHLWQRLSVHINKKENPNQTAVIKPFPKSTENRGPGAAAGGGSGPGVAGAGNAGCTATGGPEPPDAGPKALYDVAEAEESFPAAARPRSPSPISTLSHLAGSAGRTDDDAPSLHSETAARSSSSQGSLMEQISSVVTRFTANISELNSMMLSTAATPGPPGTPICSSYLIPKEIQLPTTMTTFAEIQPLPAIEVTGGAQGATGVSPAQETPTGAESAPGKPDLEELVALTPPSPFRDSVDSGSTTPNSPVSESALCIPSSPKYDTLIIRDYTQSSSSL
- METHOD: Identification of a glycine sulfonamide based non-MPEP site positive allosteric potentiator (PAM) of mGlu5 (calcium_assay).
PARAMETER_MEASURED: EC50 (µM)
Answers are plain numbers, in µM.

Field EC50 (entry CS(=O)(=O)N(Cc1nc2ccccc2[nH]1)c1ccccc1Cl ) reads 2.46

###

- TARGET_ENTITY: 26S proteasome non-ATPase regulatory subunit 14 (Homo sapiens, UniProt O00487)
- Sequence (O00487 whole entry): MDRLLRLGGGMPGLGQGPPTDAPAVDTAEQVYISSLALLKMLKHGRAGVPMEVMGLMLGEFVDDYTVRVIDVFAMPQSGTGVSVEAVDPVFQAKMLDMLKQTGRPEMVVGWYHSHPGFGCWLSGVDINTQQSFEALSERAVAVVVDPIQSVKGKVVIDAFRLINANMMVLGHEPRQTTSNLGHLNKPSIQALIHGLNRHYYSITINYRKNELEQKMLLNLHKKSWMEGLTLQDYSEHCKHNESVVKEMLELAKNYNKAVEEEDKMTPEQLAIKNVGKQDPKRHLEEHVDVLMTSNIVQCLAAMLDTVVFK
- METHOD: inhibition of proteasome subunit RPN11 – biochemical, fluorescence polarization, uHTS hits, confirmation (AID 602368)
- Assay type: functional
Active and inactive are the calls of the source.
PARAMETER_MEASURED: IC50

Here's what some known entries look like.
MOLECULE: CCN(CCO)c1ccc(N=Nc2cc(C)[nH]n2)cc1
TARGET_ENTITY: 26S proteasome non-ATPase regulatory subunit 14 (Homo sapiens, UniProt O00487)
RESULT_VALUE: 53 µM (active)
//
MOLECULE: NC1=NC(=O)/C(=C/c2cn(CCC(=O)O)nc2-c2ccc(Cl)cc2)S1
TARGET_ENTITY: 26S proteasome non-ATPase regulatory subunit 14 (Homo sapiens, UniProt O00487)
RESULT_VALUE: 44.7 µM (active)
//
MOLECULE: COc1ccc(Cc2c(-c3ccc(C)cc3)nc3ccc(Cl)cn23)c(C)c1
TARGET_ENTITY: 26S proteasome non-ATPase regulatory subunit 14 (Homo sapiens, UniProt O00487)
RESULT_VALUE: 27.1 µM (active)
//
MOLECULE: O=C(N/N=C/c1cc(Cl)ccc1O)c1ccc(Br)cc1
TARGET_ENTITY: 26S proteasome non-ATPase regulatory subunit 14 (Homo sapiens, UniProt O00487)
RESULT_VALUE: 12.7 µM (active)
//
MOLECULE: O=C(Nc1ccc2c(c1)CCC2)c1cc(S(=O)(=O)N2CCN(c3ccccc3)CC2)ccc1Cl
TARGET_ENTITY: 26S proteasome non-ATPase regulatory subunit 14 (Homo sapiens, UniProt O00487)
RESULT_VALUE: 50.9 µM (active)

Next item in the queue.
Field IC50 (entry COc1cccc2cc(C(=O)Nc3ccc(F)cc3)/c(=N/c3ccc(C(=O)O)cc3)oc12 ) reads 48.2 µM (active)

###

- METHOD: alpha-synuclein stem-loop luciferase translation blockers – H4 neuroglioma cells, luminescence, confirmation (AID 1988)
- Assay type: functional, cell-based
The source made the active and inactive calls.
Give EC50 for every item shown.

Here's what some known entries look like.
MOLECULE: Oc1[nH]c2ccc(Br)cc2c1N=NC(S)=Nc1ccc(F)cc1
EC50: 9.77 µM (active)
//
MOLECULE: Cc1ccc(C(C)C)c(OCc2ccc(C(=O)N/N=C/c3ccc(O)cc3O)cc2)c1
EC50: 2.17 µM (active)
//
MOLECULE: COC(=O)c1[nH]c2ccc(Br)cc2c1NC(=O)CN1CCN(C2CCCCC2)CC1
EC50: 7.79 µM (active)
//
MOLECULE: COC(=O)Nc1nc2cc(C(=O)c3ccc(F)cc3)ccc2[nH]1
EC50: < 0.1 µM (active)
//
MOLECULE: CCN(CCO)c1ccc(N=Nc2cc(C)[nH]n2)cc1
EC50: 4.94 µM (active)

Field EC50 (entry O=C(CSc1n[nH]c(-c2ccccn2)n1)Nc1cccc(Cl)c1 ) reads 9 µM (active)

###

- Tested on: H4
- METHOD: Luminescence Cell-Based Dose Response HTS to Identify Activators of 5'UTR Stem-Loop Driven Prion Protein mRNA Translation in H4 Neuroglioblastoma Cells. [Related pubchem assays: 1829 (Project Summary), 1814 (Primary HTS)]
- Type: functional
- CONDITION_SET: Homo sapiens
The source made the active and inactive calls.
Give EC50 for every item shown.

# map each molecule to its EC50
1. Cc1ccc(NC(=O)C2=C(O)c3sccc3N(C)S2(=O)=O)cc1
2. O=C(Nc1ccc(-c2cn3ccsc3n2)cc1)C1CC1
3. COc1ccc(-c2cc(O)cc(O)c2)cc1
4. c1csc(-c2cn3ccc4ccccc4c3n2)c1

Result:
1. > 120 µM (not active)
2. 4.21 µM (active)
3. 4.12 µM (active)
4. 0.106 µM (active)

###

- TARGET_ENTITY: Large T antigen (Simian virus 40, UniProt P03070);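 further: Confirmatory-stage PubChem screen for compounds that inhibit SV40 T antigen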
- Sequence (P03070 whole entry): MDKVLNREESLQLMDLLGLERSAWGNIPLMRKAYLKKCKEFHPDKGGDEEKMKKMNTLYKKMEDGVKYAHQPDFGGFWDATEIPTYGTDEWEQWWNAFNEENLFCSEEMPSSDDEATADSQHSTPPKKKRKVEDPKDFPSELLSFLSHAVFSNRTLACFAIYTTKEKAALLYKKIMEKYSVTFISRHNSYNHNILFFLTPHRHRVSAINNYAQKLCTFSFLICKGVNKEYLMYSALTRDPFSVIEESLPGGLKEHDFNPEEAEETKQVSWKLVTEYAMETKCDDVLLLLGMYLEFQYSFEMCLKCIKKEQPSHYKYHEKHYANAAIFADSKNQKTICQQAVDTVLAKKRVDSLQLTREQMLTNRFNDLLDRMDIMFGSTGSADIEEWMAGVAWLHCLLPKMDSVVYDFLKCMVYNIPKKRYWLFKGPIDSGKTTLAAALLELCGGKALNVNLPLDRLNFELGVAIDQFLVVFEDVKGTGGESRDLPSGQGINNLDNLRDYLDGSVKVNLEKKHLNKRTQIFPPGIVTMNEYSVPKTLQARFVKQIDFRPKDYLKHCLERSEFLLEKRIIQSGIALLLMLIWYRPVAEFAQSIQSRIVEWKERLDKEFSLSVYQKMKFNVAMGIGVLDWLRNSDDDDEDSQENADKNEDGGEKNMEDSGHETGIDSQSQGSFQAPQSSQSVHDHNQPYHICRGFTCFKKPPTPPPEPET
- Assay type: functional, Betapolyomavirus macacae
Calls of active or inactive are those of the source.
PARAMETER_MEASURED: IC50

Here's what some known entries look like.
COMPOUND: O=C(CCOc1ccccc1)N1CCN(c2ccc(O)cc2)CC1
RESULT_VALUE: 4.19 µM (active)

COMPOUND: CCN(CC)c1ccc(NC(=O)CCNC(=O)c2ccco2)cc1
RESULT_VALUE: 6.69 µM (active)

COMPOUND: C=C[S+]([O-])c1sc(Cl)c(N2CCOCC2)c1[N+](=O)[O-] (centres undefined)
RESULT_VALUE: 9.77 µM (active)

COMPOUND: COc1cc(/C=N/N=C2/C(=O)Nc3ccccc32)ccc1O
RESULT_VALUE: 8.73 µM (active)

COMPOUND: CCCN1CCc2cccc3c2[C@H]1Cc1ccc(O)c(O)c1-3
RESULT_VALUE: 29.7 µM (active)

# map each compound to its IC50
1. O=C1OC2(c3ccccc31)c1cc(I)c(O)c(I)c1Oc1c2cc(I)c(O)c1I
2. CCOc1cc(/C=C/c2cc(C(F)(F)F)nc(O)n2)ccc1O

Result:
["13 µM (active)", "13 µM (active)"]

# map each compound to its IC50
1. C=CCSC1=NC(=O)/C(=C/c2cccs2)S1
2. CCOc1ccc(OCCC(=O)OCC(=O)N2CCN(S(=O)(=O)c3ccc(C)cc3)CC2)cc1

Result:
1: 40.8 µM (active); 2: 11.1 µM (active)

###

- TARGET_ENTITY: Mitogen-activated protein kinase kinase kinase kinase 4 (Homo sapiens, UniProt O95819)
- Sequence (O95819 whole entry): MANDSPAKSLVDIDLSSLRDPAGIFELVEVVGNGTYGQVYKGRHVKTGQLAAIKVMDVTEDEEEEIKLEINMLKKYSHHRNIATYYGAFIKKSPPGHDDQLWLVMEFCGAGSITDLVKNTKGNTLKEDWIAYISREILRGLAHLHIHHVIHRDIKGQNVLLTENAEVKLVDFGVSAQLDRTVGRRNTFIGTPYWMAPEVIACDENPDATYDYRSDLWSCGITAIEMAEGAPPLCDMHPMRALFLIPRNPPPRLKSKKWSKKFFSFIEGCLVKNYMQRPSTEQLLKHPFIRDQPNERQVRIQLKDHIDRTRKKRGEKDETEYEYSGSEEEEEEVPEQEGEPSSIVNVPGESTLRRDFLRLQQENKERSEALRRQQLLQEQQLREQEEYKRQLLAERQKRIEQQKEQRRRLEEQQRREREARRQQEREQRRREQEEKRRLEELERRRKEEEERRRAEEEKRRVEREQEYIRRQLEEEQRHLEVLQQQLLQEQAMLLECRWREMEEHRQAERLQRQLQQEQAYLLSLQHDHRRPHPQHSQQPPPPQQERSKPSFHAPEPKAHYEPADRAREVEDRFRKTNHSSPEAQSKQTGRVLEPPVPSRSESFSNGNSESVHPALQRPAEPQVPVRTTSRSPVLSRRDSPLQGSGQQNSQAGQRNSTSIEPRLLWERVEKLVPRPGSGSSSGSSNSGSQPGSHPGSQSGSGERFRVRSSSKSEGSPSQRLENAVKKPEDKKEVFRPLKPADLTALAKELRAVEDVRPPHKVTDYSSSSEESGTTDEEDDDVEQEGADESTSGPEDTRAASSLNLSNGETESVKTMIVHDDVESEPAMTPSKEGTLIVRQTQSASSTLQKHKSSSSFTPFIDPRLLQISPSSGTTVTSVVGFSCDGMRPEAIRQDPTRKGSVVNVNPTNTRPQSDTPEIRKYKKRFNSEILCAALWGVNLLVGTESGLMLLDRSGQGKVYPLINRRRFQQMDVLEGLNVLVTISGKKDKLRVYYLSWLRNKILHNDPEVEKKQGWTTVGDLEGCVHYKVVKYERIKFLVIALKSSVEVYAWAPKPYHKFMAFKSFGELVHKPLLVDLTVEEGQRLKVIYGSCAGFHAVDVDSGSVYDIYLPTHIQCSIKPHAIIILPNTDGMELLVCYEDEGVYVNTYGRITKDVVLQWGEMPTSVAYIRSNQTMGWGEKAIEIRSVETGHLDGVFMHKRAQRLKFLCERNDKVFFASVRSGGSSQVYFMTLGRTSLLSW
- Type: functional
The source made the active and inactive calls.
Result category, one only: T (active), F (inactive)

Please review the following examples before continuing.
MOLECULE: c1cnc2[nH]cc(-c3ccnc(NCC4CCCCC4)n3)c2c1
TARGET_ENTITY: Mitogen-activated protein kinase kinase kinase kinase 4 (Homo sapiens, UniProt O95819)
CLASS_NAME: T
--
MOLECULE: CS(=O)(=O)Nc1ccc(Nc2ccc3[nH]nc(N)c3c2)cc1
TARGET_ENTITY: Mitogen-activated protein kinase kinase kinase kinase 4 (Homo sapiens, UniProt O95819)
CLASS_NAME: F
--
MOLECULE: c1ccc(Cn2nnc(-c3ccc4[nH]ncc4c3)c2-c2ccccc2)cc1
TARGET_ENTITY: Mitogen-activated protein kinase kinase kinase kinase 4 (Homo sapiens, UniProt O95819)
CLASS_NAME: T

Let's switch to this compound now.
Task: Recorded test call requested for O=C(Nc1n[nH]c2ccc(-c3cn(Cc4ccccc4)nn3)cc12)c1cc(F)ccc1F
Result: T

###

- METHOD: Luminescence Cell-Based Dose Retest to Confirm Inhibitors of Cancer Stem Cells. [Related pubchem assays (depositor defined):AID2717, AID2721]
- Format: functional
- CONDITION_SET: Homo sapiens
Calls of active or inactive are those of the source.
PARAMETER_MEASURED: AC50

Here's what some known entries look like.
COMPOUND: COc1cc(CNCCc2ccccc2)cc(Cl)c1OCc1ccccc1
RESULT_VALUE: 5.32 µM (active)
--
COMPOUND: CC(C)(C)C1CCC2(CC1)C(C#N)=C(SCC(=O)NC1CCCCC1)NC(=O)C2C#N (stereo not given)
RESULT_VALUE: 6.34 µM (active)
--
COMPOUND: O=C(N/N=C/c1cc(Cl)ccc1O)c1ccc(Br)cc1
RESULT_VALUE: 1.09 µM (active)
--
COMPOUND: CCC(C)Sc1cccc(-c2nc3cc(C)ccn3c2NCc2ccccc2)c1 (stereo not given)
RESULT_VALUE: 5.14 µM (active)

Next item in the queue.
Field AC50 (entry CC(=O)Nc1ccc(C2CC(c3ccc(Cl)cc3)=NN2c2ccccc2)cc1 (stereo not given) ) reads 1.64 µM (active)
